Tested on: recombinant chitinase C4
assay.method.text: Effect of metallic ions and chemical compounds on chitinase activity
Format: biochemical, P. orarium
measurement.setup: relative to standard MAT buffer control (100%); ions and EDTA 1 mM, Tween 20 0.5% v/v, SDS 0.5% w/v; 2 μM enzyme
assay.endpoint: [%] Residual activity C4 (%)

{"compound": "[Zn+2]", "assay.result": 8.1}
{"compound": "[Ca+2]", "assay.result": 3.8}
{"compound": "[Cu+2]", "assay.result": 14.8}
{"compound": "[Mg+2]", "assay.result": 3.3}
{"compound": "[K+]", "assay.result": 3.7}
{"compound": "O=C(O)CN(CCN(CC(=O)O)CC(=O)O)CC(=O)O", "assay.result": 73.9}
{"compound": "[Ni+2]", "assay.result": 38.8}
{"compound": "CCCCCCCCCCCCOS(=O)(=O)[O-].[Na+] [SDS, sodium dodecyl sulfate]", "assay.result": 33.2}
